target: purified HLA DRB1*0401 (Homo sapiens, UniProt P01903+P01911, A100K/A169T/F76Y/I96L/K127E/L162R/M171V/N62H/P40V/Q125Y/R42H/S133A/S149N/S66Y/V115G/V209L/W38E); construct: purified from EBV transformed homozygous cell lines or single MHC allele transfected 721.221, C1R, or fibroblast lines; made in house; assay: HLA-DR radioligand binding inhibition assay, DRB1*0401; details: IC50 nM purified HLA DRB1 *0401, purified HLA DRB1*0401
testReadout: IC50
Units required after the number.

Worked cases, IC50 given:
Would you kindly share the measured IC50 for CC[C@H](C)[C@H](NC(=O)[C@@H](NC(=O)[C@@H]1CCCN1C(=O)[C@H](C)N)[C@@H](C)O)C(=O)N[C@@H](CCCNC(=N)N)C(=O)NCC(=O)N[C@@H](CC(=O)O)C(=O)N1CCC[C@H]1C(=O)N[C@@H](CCC(=O)O)C(=O)N[C@@H](CS)C(=O)N[C@@H](Cc1c[nH]cn1)C(=O)N[C@@H](CC(C)C)C(=O)N[C@@H](Cc1ccccc1)C(=O)N[C@@H](Cc1ccc(O)cc1)C(=O)N[C@@H](CC(N)=O)C(=O)O [Peptide 9019.0022] ?
1640 nM

Would you kindly share the measured IC50 for CC[C@H](C)[C@H](NC(=O)[C@H](CCC(=O)O)NC(=O)[C@H](CCCNC(=N)N)NC(=O)CNC(=O)[C@H](CO)NC(=O)[C@H](Cc1ccc(O)cc1)NC(=O)[C@H](C)NC(=O)[C@@H]1CCCN1C(=O)CN)C(=O)N[C@H](C(=O)N[C@@H](Cc1ccc(O)cc1)C(=O)N1CCC[C@H]1C(=O)N[C@@H](CC(N)=O)C(=O)N[C@@H](C)C(=O)N[C@@H](CO)C(=O)O)[C@@H](C)CC [Peptide 9019.0111] ?
13000 nM

Shifting focus to the molecule that follows.
Would you kindly share the measured IC50 for CC(C)C[C@H](NC(=O)[C@H](CC(C)C)NC(=O)[C@H](CCC(N)=O)NC(=O)[C@H](CC(C)C)NC(=O)[C@H](CCCNC(=N)N)NC(=O)[C@H](CO)NC(=O)[C@H](CCCCN)NC(=O)[C@H](CCCCN)NC(=O)[C@@H](NC(=O)[C@@H]1CCCN1C(=O)[C@H](CCC(=O)O)NC(=O)[C@@H](N)CC(C)C)C(C)C)C(=O)NCC(=O)N[C@@H](C)C(=O)N[C@H](C(=O)O)[C@@H](C)O [Peptide 9019.0155] ?
5110 nM

Data provenance: patent US20140377340A1
